The listing below reports pKi for compounds tested on EP4 (Homo sapiens (Human)).
Sequence (P35408 whole entry): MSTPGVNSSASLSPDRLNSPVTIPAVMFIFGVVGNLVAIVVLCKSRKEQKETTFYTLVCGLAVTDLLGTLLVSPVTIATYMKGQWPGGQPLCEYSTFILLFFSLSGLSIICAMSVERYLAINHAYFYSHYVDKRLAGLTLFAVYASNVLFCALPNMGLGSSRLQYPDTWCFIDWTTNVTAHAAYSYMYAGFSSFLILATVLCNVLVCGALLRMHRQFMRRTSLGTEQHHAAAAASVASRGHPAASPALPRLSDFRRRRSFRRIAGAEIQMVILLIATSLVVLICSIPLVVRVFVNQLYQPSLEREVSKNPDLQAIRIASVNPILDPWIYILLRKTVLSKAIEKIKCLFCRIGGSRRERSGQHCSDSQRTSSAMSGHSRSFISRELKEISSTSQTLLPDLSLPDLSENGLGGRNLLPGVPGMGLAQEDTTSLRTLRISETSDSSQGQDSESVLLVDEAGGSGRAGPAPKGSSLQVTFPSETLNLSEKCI
Give only the number. pKi is defined as minus log10 of concentration in molar units.

Example cases with answers are listed next.
[
  {
    "MOL": "Cc1nn(C)c(Oc2cccc(C(F)(F)F)c2)c1C(=O)NC1(c2ccc(C(=O)O)cc2)CC1",
    "NUMERIC_RESULT": 7.37
  },
  {
    "MOL": "C[C@H](NC(=O)c1c(C(F)(F)F)nn(C)c1Oc1ccc(Cl)c(Cl)c1)c1ccc(C(=O)O)cc1",
    "NUMERIC_RESULT": 7.89
  },
  {
    "MOL": "C[C@H](NC(=O)c1c(C(F)F)nn(C)c1Oc1cccc(C(F)F)c1)c1ccc(C(=O)O)cc1",
    "NUMERIC_RESULT": 7.59
  }
]

Could you now consider this next compound?
### Prompt Can you share its pKi? I mean this compound: C[C@H](NC(=O)c1c(C(F)F)nn(C)c1Oc1cccc(Cl)c1)c1ccc(C(=O)O)cc1
### Response 7.30

Recorded values, source patent US8686018B2.
